Recorded values, source patent US11479556B1.

Overview of reported DC50 across a group of molecules:
System Name: BTK (Homo sapiens)
Construct: endogenous in cells; host or cells: TMD8 cells
Sequence (Q06187 whole entry): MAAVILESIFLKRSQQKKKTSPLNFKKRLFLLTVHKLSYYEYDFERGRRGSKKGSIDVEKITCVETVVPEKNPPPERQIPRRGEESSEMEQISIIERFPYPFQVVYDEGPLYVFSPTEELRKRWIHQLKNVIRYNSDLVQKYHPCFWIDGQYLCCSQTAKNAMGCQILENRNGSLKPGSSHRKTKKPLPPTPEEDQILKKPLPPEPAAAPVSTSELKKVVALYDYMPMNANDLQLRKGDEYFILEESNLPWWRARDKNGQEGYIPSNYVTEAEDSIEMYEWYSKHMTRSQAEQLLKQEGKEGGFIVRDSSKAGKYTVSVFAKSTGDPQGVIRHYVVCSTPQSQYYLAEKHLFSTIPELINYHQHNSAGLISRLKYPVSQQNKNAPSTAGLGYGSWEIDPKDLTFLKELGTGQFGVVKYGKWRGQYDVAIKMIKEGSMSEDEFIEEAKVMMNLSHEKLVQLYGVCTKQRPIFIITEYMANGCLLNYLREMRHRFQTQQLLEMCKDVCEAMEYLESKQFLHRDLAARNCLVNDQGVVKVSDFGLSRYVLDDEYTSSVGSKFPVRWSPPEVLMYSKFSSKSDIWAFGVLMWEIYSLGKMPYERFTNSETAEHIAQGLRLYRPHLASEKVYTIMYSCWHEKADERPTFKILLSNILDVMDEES
Measurement Notes: Cellular BTK HTRF assay (BTK degradation) in TMD8 cells
Format: cell-based
Condition Info: four hours incubation, Total-BTK HTRF relative to DMSO-treated cells

Examples with answers:
Molecule	DC50
CN1CCN([C@@H]2CCCN(c3cnc(C(N)=O)c(Nc4ccc(N5CCN(CCCCc6cccc7c6CN(C6CCC(=O)NC6=O)C7=O)CC5)cc4)n3)C2)C1=O (some centres unmarked)	< 5 nM
Cc1ncsc1-c1ccc(CNC(=O)[C@@H]2C[C@@H](O)CN2C(=O)[C@@H](NC(=O)C2(F)CC2)C(C)(C)C)c(OCCCCCCCC(=O)N2CCC(c3ccc(Nc4nc(N5CCC[C@@H](N6CCN(C)C6=O)C5)cnc4C(N)=O)cc3)CC2)c1	> 15 nM
CN1CCN([C@H]2CCCN(c3cnc(C(N)=O)c(Nc4ccc(C5(C)CCN([C@H]6C[C@@H](Nc7cccc8c7C(=O)N(C7CCC(=O)NC7=O)C8=O)C6)CC5)cc4)n3)C2)C1=O (some centres unmarked)	< 5 nM
NC(=O)c1ncc(N2CCCC3(COC3)C2)nc1Nc1ccc(C2CCN(CC3CCN(c4ccc5c(=O)n(C6CCC(=O)NC6=O)ccc5c4)CC3)CC2)cc1 (centres unmarked)	< 5 nM

Query molecule follows.
Noted for CN1CCN([C@@H]2CCCN(c3cnc(C(N)=O)c(Nc4ccc(C5CCN(C[C@H]6CCN(c7ccc8c(=O)n(C9CCC(=O)NC9=O)ccc8c7)C6)CC5)cc4)n3)C2)C1=O (some centres unmarked) [Compound 134] : its DC50 reads < 5 nM
